# Tested on: PC-3 prostate
# assay-remarks: NCI tumour cell line growth inhibition, 48 h; in the data active = GI50 below about 0.43 µM; inactive = the rest
Bench note: report the call from T for active, F for inactive

Some entries whose results are on file:
| compound | assigned-class |
| --- | --- |
| CCCCCCCCCCCCCCCCCCNC(=O)[C@H]1CSC(c2cccs2)N1 (stereo not given in full) | F |
| COc1ccccc1-c1cc(=O)c2ccc(C)nc2[nH]1 | F |
| COc1ccc2cc(-c3ccc(-c4ccc(C(=N)N)s4)s3)ccc2c1 | F |
| CC(C)c1ccc(C(=O)Nc2sc3c(CN(C)C)c(O)ccc3c2C(N)=O)cc1 | F |
| O=S(=O)(CCOCc1ccc(-c2ccc3ncnc(Nc4ccc(OCc5cccc(F)c5)c(Cl)c4)c3c2)o1)c1ccccc1 | F |

// next entry
Lookup: What did the test return for O=c1c2c3c(sc2n2c(-c4cc(-c5ccccc5)nn4-c4ccccc4)nnc2n1Cc1ccccc1)CCCC3 ?
Found: F
